Provide the reported Activity of each item.
Assay: Antitumor activity against human Hs 578T cells assessed as reduction of cell growth at 10 uM after 48 hrs by SRB assay
Format: functional
Set-up: scale not given: the % may be the effect or the level left
Numbers only, in %.

>>> df
                            compound_smiles  recorded_number
0  CCOC1=C2CC[C@@H]3[C@H](CC[C@]4(C)C(=O)CC[C@@H]34)[C@@]2(C)CCC1=O           118.13
1  C[C@]12CC[C@H]3[C@@H](CCC4=CC(=O)CC[C@@]43CF)[C@@H]1CCC2=O           127.96

Kindly give each listed record's Activity.
1. C[C@]12CCC(=O)C(N)=C1C=C[C@@H]1[C@@H]2CC[C@]2(C)C(=O)CC[C@@H]12.Cl
2. C[C@]12CCC(=O)C(Oc3ccccc3)=C1CC[C@@H]1[C@@H]2CC[C@]2(C)C(=O)CC[C@@H]12

112.26
103.5

----------
Test system: EKVX
Test: Antitumor activity against human EKVX cells assessed as reduction of cell growth at 10 uM after 48 hrs by SRB assay
Assay type: functional
Design: scale not given: the % may be the effect or the level left
Parameter: Activity (%)
Numbers only, in %.

Here's what some known entries look like.
                            compound_smiles  parameter  recorded_number
0  CCOC1=C2CC[C@@H]3[C@H](CC[C@]4(C)C(=O)CC[C@@H]34)[C@@]2(C)CCC1=O   Activity           111.14
1  C[C@]12CCC(=O)C(Oc3ccccc3)=C1CC[C@@H]1[C@@H]2CC[C@]2(C)C(=O)CC[C@@H]12   Activity           104.06
2  C[C@]12CCC(=O)C(N)=C1C=C[C@@H]1[C@@H]2CC[C@]2(C)C(=O)CC[C@@H]12.Cl   Activity            97.99

# Activity of C[C@]12CC[C@H]3[C@@H](CCC4=CC(=O)CC[C@@]43CF)[C@@H]1CCC2=O = 94.85

----------
Give measured Activity for each item. Keep answers brief.
Tested on: NCI-H522
Test: Antitumor activity against human NCI-H522 cells assessed as reduction of cell growth at 10 uM after 48 hrs by SRB assay
Type: functional
Set-up: scale not given: the % may be the effect or the level left
One number for each entry, in %.

These solved cases illustrate the format of a correct answer.
>>> df
                            compound_smiles  experimental_target  reading_unit  recorded_number
0  C[C@]12CCC(=O)C(Oc3ccccc3)=C1CC[C@@H]1[C@@H]2CC[C@]2(C)C(=O)CC[C@@H]12             NCI-H522             %            87.31
1  C[C@]12CCC(=O)C(N)=C1C=C[C@@H]1[C@@H]2CC[C@]2(C)C(=O)CC[C@@H]12.Cl             NCI-H522             %            76.59
2  C[C@]12CC[C@H]3[C@@H](CCC4=CC(=O)CC[C@@]43CF)[C@@H]1CCC2=O             NCI-H522             %            87.35

The record that follows has no Activity shown yet.
Entry under test: CCOC1=C2CC[C@@H]3[C@H](CC[C@]4(C)C(=O)CC[C@@H]34)[C@@]2(C)CCC1=O . Its Activity was 91

----------
Test system: SF-295
Experiment: Antitumor activity against human SF-295 cells assessed as reduction of cell growth at 10 uM after 48 hrs by SRB assay
Assay type: functional
Parameters: scale not given: the % may be the effect or the level left
For each of the molecules below, state its Activity.

Example entries begin here.
                            compound_smiles  experimental_target   result
0  CCOC1=C2CC[C@@H]3[C@H](CC[C@]4(C)C(=O)CC[C@@H]34)[C@@]2(C)CCC1=O               SF-295     114%
1  C[C@]12CC[C@H]3[C@@H](CCC4=CC(=O)CC[C@@]43CF)[C@@H]1CCC2=O               SF-295   106.3%
2  C[C@]12CCC(=O)C(Oc3ccccc3)=C1CC[C@@H]1[C@@H]2CC[C@]2(C)C(=O)CC[C@@H]12               SF-295  124.31%

Now for another entry.
The reported SF-295 Activity of C[C@]12CCC(=O)C(N)=C1C=C[C@@H]1[C@@H]2CC[C@]2(C)C(=O)CC[C@@H]12.Cl is 105.1%
